Source listed as patent US4808703A.

system: ICR mice; test: Pulmonary toxicity (fibrosis of the lung) in mice; settings: 5 mg/kg i.p. once daily for 10 days, autopsy after 5 weeks of observation; count
measure.name: Incidence: Number of mice with pulmonary fibrosis/Number of mice in the treatment group

GET /value?item= Cc1c(N)nc(C(CC(N)=O)NCC(N)C(N)=O)nc1C(=O)NC(C(=O)NC(C)C(O)C(C)C(=O)NC(C(=O)NCCc1nc(-c2nc(C(=O)NCCCN(CCCCN(Cc3ccc(Cl)c(Cl)c3)Cc3ccc(Cl)c(Cl)c3)Cc3ccc(Cl)c(Cl)c3)cs2)cs1)C(C)O)C(OC1OC(CO)C(O)C(O)C1OC1OC(CO)C(O)C(OC(N)=O)C1O)c1cnc[nH]1 (stereo not drawn) [Compound 3] &field=Incidence: Number of mice with pulmonary fibrosis/Number of mice in the treatment group returns 0/10

GET /value?item= CCCCCN(CCCCC)CCCCN(CCCCC)CCCNC(=O)c1csc(-c2csc(CCNC(=O)C(NC(=O)C(C)C(O)C(C)NC(=O)C(NC(=O)c3nc(C(CC(N)=O)NCC(N)C(N)=O)nc(N)c3C)C(OC3OC(CO)C(O)C(O)C3OC3OC(CO)C(O)C(OC(N)=O)C3O)c3cnc[nH]3)C(C)O)n2)n1 (stereo not drawn) [Compound 9] &field=Incidence: Number of mice with pulmonary fibrosis/Number of mice in the treatment group returns 0/10

Lookup result for Cc1c(N)nc(C(CC(N)=O)NCC(N)C(N)=O)nc1C(=O)NC(C(=O)NC(C)C(O)C(C)C(=O)NC(C(=O)NCCc1nc(-c2nc(C(=O)NCCC[N+](C)(CCCCN(Cc3ccccc3)Cc3ccccc3)Cc3ccccc3)cs2)cs1)C(C)O)C(OC1OC(CO)C(O)C(O)C1OC1OC(CO)C(O)C(OC(N)=O)C1O)c1cnc[nH]1 (stereo not drawn) [Compound 12] ; measured Incidence: Number of mice with pulmonary fibrosis/Number of mice in the treatment group: 0/10

What the record says about Cc1c(N)nc(C(CC(N)=O)NCC(N)C(N)=O)nc1C(=O)NC(C(=O)NC(C)C(O)C(C)C(=O)NC(C(=O)NCCc1nc(-c2nc(C(=O)NCCCN(CCCCN(Cc3ccc(Cl)cc3)Cc3ccc(Cl)cc3)Cc3ccc(Cl)cc3)cs2)cs1)C(C)O)C(OC1OC(CO)C(O)C(O)C1OC1OC(CO)C(O)C(OC(N)=O)C1O)c1cnc[nH]1 (stereo not drawn) [Compound 2] : Incidence: Number of mice with pulmonary fibrosis/Number of mice in the treatment group is 0/10

compound CCCCCCCCCCN(CCCCCCCCCC)CCCCN(CCCCCCCCCC)CCCNC(=O)c1csc(-c2csc(CCNC(=O)C(NC(=O)C(C)C(O)C(C)NC(=O)C(NC(=O)c3nc(C(CC(N)=O)NCC(N)C(N)=O)nc(N)c3C)C(OC3OC(CO)C(O)C(O)C3OC3OC(CO)C(O)C(OC(N)=O)C3O)c3cnc[nH]3)C(C)O)n2)n1 (stereo not drawn) [Compound 8] , Incidence: Number of mice with pulmonary fibrosis/Number of mice in the treatment group observed: 0/10

Lab note: measured Incidence: Number of mice with pulmonary fibrosis/Number of mice in the treatment group of Cc1ccc(CN(CCCCN(Cc2ccc(C)cc2)Cc2ccc(C)cc2)CCCNC(=O)c2csc(-c3csc(CCNC(=O)C(NC(=O)C(C)C(O)C(C)NC(=O)C(NC(=O)c4nc(C(CC(N)=O)NCC(N)C(N)=O)nc(N)c4C)C(OC4OC(CO)C(O)C(O)C4OC4OC(CO)C(O)C(OC(N)=O)C4O)c4cnc[nH]4)C(C)O)n3)n2)cc1 (stereo not drawn) [Compound 5] was 0/10

----------
tested on: ICR mice; test: Pulmonary toxicity (fibrosis of the lung) in mice; settings: 5 mg/kg i.p. once daily for 10 days, autopsy after 5 weeks; scores 0, 1, 2, 4, 6 points; value in parentheses
Assignment: determine reported Grade of pulmonary fibrosis (total score divided by total number of specimens) for the given compounds.
# output: bare number, no unit

Record Cc1c(N)nc(C(CC(N)=O)NCC(N)C(N)=O)nc1C(=O)NC(C(=O)NC(C)C(O)C(C)C(=O)NC(C(=O)NCCc1nc(-c2nc(C(=O)NCCCN(CCCCN(CC3CCCCCCC3)CC3CCCCCCC3)CC3CCCCCCC3)cs2)cs1)C(C)O)C(OC1OC(CO)C(O)C(O)C1OC1OC(CO)C(O)C(OC(N)=O)C1O)c1cnc[nH]1 (centres unmarked) . Reported Grade of pulmonary fibrosis (total score divided by total number of specimens): 0

Grade of pulmonary fibrosis (total score divided by total number of specimens) reading for Cc1c(N)nc(C(CC(N)=O)NCC(N)C(N)=O)nc1C(=O)NC(C(=O)NC(C)C(O)C(C)C(=O)NC(C(=O)NCCc1nc(-c2nc(C(=O)NCCCN(CCCCN(Cc3ccc(Cl)cc3)Cc3ccc(Cl)cc3)Cc3ccc(Cl)cc3)cs2)cs1)C(C)O)C(OC1OC(CO)C(O)C(O)C1OC1OC(CO)C(O)C(OC(N)=O)C1O)c1cnc[nH]1 (centres unmarked) : 0

----------
tested on: ICR mice; experiment: Pulmonary toxicity (fibrosis of the lung) in mice; settings: incidence of the test compound to that of bleomycin complex
measure.name: Incidence ratio
Returns: the value as a bare number; no unit string appended.

Per the records, this compound ( COc1ccc(CN(CCCCN(Cc2ccc(OC)cc2)Cc2ccc(OC)cc2)CCCNC(=O)c2csc(-c3csc(CCNC(=O)C(NC(=O)C(C)C(O)C(C)NC(=O)C(NC(=O)c4nc(C(CC(N)=O)NCC(N)C(N)=O)nc(N)c4C)C(OC4OC(CO)C(O)C(O)C4OC4OC(CO)C(O)C(OC(N)=O)C4O)c4cnc[nH]4)C(C)O)n3)n2)cc1 (centres unmarked) ) has Incidence ratio equal to 0.00

Form field Incidence ratio, entry CCCCCCCCCCN(CCCCCCCCCC)CCCCN(CCCCCCCCCC)CCCNC(=O)c1csc(-c2csc(CCNC(=O)C(NC(=O)C(C)C(O)C(C)NC(=O)C(NC(=O)c3nc(C(CC(N)=O)NCC(N)C(N)=O)nc(N)c3C)C(OC3OC(CO)C(O)C(O)C3OC3OC(CO)C(O)C(OC(N)=O)C3O)c3cnc[nH]3)C(C)O)n2)n1 (centres unmarked) : 0.00

For record Cc1c(N)nc(C(CC(N)=O)NCC(N)C(N)=O)nc1C(=O)NC(C(=O)NC(C)C(O)C(C)C(=O)NC(C(=O)NCCc1nc(-c2nc(C(=O)NCCCN(CCCCN(Cc3ccccc3)Cc3ccccc3)Cc3ccccc3)cs2)cs1)C(C)O)C(OC1OC(CO)C(O)C(O)C1OC1OC(CO)C(O)C(OC(N)=O)C1O)c1cnc[nH]1 (centres unmarked) the listed Incidence ratio is 0.00

The reported value for Cc1c(N)nc(C(CC(N)=O)NCC(N)C(N)=O)nc1C(=O)NC(C(=O)NC(C)C(O)C(C)C(=O)NC(C(=O)NCCc1nc(-c2nc(C(=O)NCCCNCCCCN)cs2)cs1)C(C)O)C(OC1OC(CO)C(O)C(O)C1OC1OC(CO)C(O)C(OC(N)=O)C1O)c1c[nH]cn1 (centres unmarked) [Compound A5, reference compound] in terms of Incidence ratio is 0.71

# Incidence ratio of Cc1c(N)nc(C(CC(N)=O)NCC(N)C(N)=O)nc1C(=O)NC(C(=O)NC(C)C(O)C(C)C(=O)NC(C(=O)NCCc1nc(-c2nc(C(=O)NCCCN(CCCCN(Cc3ccc(OCc4ccccc4)c(OCc4ccccc4)c3)Cc3ccc(OCc4ccccc4)c(OCc4ccccc4)c3)Cc3ccc(OCc4ccccc4)c(OCc4ccccc4)c3)cs2)cs1)C(C)O)C(OC1OC(CO)C(O)C(O)C1OC1OC(CO)C(O)C(OC(N)=O)C1O)c1cnc[nH]1 (centres unmarked) = 0.00

----------
test system: ICR mice; assay: Pulmonary toxicity (fibrosis of the lung) in mice; conditions: 5 mg/kg i.p. once daily for 10 days, autopsy after 5 weeks of observation; count
measure.name: Incidence: Number of mice with pulmonary fibrosis/Number of mice in the treatment group

# Cc1c(N)nc(C(CC(N)=O)NCC(N)C(N)=O)nc1C(=O)NC(C(=O)NC(C)C(O)C(C)C(=O)NC(C(=O)NCCc1nc(-c2nc(C(=O)NCCCN(CCCCN(CC3CCCCCCC3)CC3CCCCCCC3)CC3CCCCCCC3)cs2)cs1)C(C)O)C(OC1OC(CO)C(O)C(O)C1OC1OC(CO)C(O)C(OC(N)=O)C1O)c1cnc[nH]1 (centres unmarked) with ICR mice: Incidence: Number of mice with pulmonary fibrosis/Number of mice in the treatment group is 0/10

GET /values?item= Cc1c(N)nc(C(CC(N)=O)NCC(N)C(N)=O)nc1C(=O)NC(C(=O)NC(C)C(O)C(C)C(=O)NC(C(=O)NCCc1nc(-c2nc(C(=O)NCCCNCCCCN)cs2)cs1)C(C)O)C(OC1OC(CO)C(O)C(O)C1OC1OC(CO)C(O)C(OC(N)=O)C1O)c1c[nH]cn1 (centres unmarked) [Compound A5, reference compound] &system= ICR mice returns Incidence: Number of mice with pulmonary fibrosis/Number of mice in the treatment group: 5/10

Field Incidence: Number of mice with pulmonary fibrosis/Number of mice in the treatment group (ICR mice), entry COc1ccc(CN(CCCCN(Cc2ccc(OC)cc2)Cc2ccc(OC)cc2)CCCNC(=O)c2csc(-c3csc(CCNC(=O)C(NC(=O)C(C)C(O)C(C)NC(=O)C(NC(=O)c4nc(C(CC(N)=O)NCC(N)C(N)=O)nc(N)c4C)C(OC4OC(CO)C(O)C(O)C4OC4OC(CO)C(O)C(OC(N)=O)C4O)c4cnc[nH]4)C(C)O)n3)n2)cc1 (centres unmarked) : 0/10

Test item Cc1c(N)nc(C(CC(N)=O)NCC(N)C(N)=O)nc1C(=O)NC(C(=O)NC(C)C(O)C(C)C(=O)NC(C(=O)NCCc1nc(-c2nc(C(=O)NCCCN(CCCCN(Cc3ccccc3)Cc3ccccc3)Cc3ccccc3)cs2)cs1)C(C)O)C(OC1OC(CO)C(O)C(O)C1OC1OC(CO)C(O)C(OC(N)=O)C1O)c1cnc[nH]1 (centres unmarked) ; ICR mice; reported Incidence: Number of mice with pulmonary fibrosis/Number of mice in the treatment group was 0/10

The observed Incidence: Number of mice with pulmonary fibrosis/Number of mice in the treatment group for Cc1c(N)nc(C(CC(N)=O)NCC(N)C(N)=O)nc1C(=O)NC(C(=O)NC(C)C(O)C(C)C(=O)NC(C(=O)NCCc1nc(-c2nc(C(=O)NCCCN(CCCCN(Cc3ccc(OCc4ccccc4)c(OCc4ccccc4)c3)Cc3ccc(OCc4ccccc4)c(OCc4ccccc4)c3)Cc3ccc(OCc4ccccc4)c(OCc4ccccc4)c3)cs2)cs1)C(C)O)C(OC1OC(CO)C(O)C(O)C1OC1OC(CO)C(O)C(OC(N)=O)C1O)c1cnc[nH]1 (centres unmarked) when tested with ICR mice stands at 0/10
